Taken from patent US20240182445A1.

Target: human TREK-1 (Homo sapiens, UniProt O95069)
Construct: expressed in transfected cells
Experiment: TREK-1 Thallium (Tl+) flux assay, Method 1
Assay type: cell-based
Conditions: TREK-1 Thallium (Tl+) flux assay; values without footnote *12 are Method 1
Method: The term “thallium flux assay” herein refers to a fluorescence-based assay used to monitor the activity of TREK channels. Thallium is a congener of potassium that readily fluxes through the pore of TREK channels. Thallium flux is measured using a commercially available, thallium-sensitive fluorescent dye called Thallos. The detail method is described below. […] ΔRatio=(fluorescence intensity at 25 seconds after thallium addition)/(average of fluorescent intensity before thallium addition)
observed_property: IC50

>>> value_observed("O=C(Nc1c(F)cc(C#Cc2ccccc2)cc1F)c1c(Cl)cnn1C[C@H]1CCOC1")
"260 nM"
>>> value_observed("CCC(=O)N1CCC(n2ncc(Cl)c2C(=O)Nc2ncc(C#Cc3ccccc3)cc2C)C1 (centres unmarked)")
"190 nM"
>>> value_observed("Cc1cc(C#Cc2ccccc2)cc(F)c1NC(=O)c1c(Cl)cnn1CC1(C#N)CC1")
"220 nM"
>>> value_observed("CC(=O)N1CC(Cn2ncc(Cl)c2C(=O)Nc2ncc(C#Cc3ccccc3)cc2C)C1")
"220 nM"
>>> value_observed("CC(=O)N1CCC(n2ncc(Cl)c2C(=O)Nc2ncc(C#Cc3cccc(F)c3)cc2F)CC1")
"90 nM"
>>> value_observed("CC(=O)N1CCC(n2ncc(Cl)c2C(=O)Nc2ncc(C#Cc3ccc(F)cc3)cc2F)CC1")
"140 nM"
>>> value_observed("Cc1cc(C#Cc2cccs2)cnc1NC(=O)c1c(Cl)cnn1C1CC2(C1)CN(C(=O)C1COCCO1)C2 (centres unmarked)")
"180 nM"
>>> value_observed("CC(=O)N1CCC(n2ncc(Cl)c2C(=O)Nc2ncc(C#Cc3ccccc3)cc2C)C(F)C1 (centres unmarked)")
"100 nM"

---

Parameter: pIC50. Scope: all listed entries.
Target: human TREK-1 (Homo sapiens)
Construct: expressed in transfected cells
Sequence (O95069 1-426): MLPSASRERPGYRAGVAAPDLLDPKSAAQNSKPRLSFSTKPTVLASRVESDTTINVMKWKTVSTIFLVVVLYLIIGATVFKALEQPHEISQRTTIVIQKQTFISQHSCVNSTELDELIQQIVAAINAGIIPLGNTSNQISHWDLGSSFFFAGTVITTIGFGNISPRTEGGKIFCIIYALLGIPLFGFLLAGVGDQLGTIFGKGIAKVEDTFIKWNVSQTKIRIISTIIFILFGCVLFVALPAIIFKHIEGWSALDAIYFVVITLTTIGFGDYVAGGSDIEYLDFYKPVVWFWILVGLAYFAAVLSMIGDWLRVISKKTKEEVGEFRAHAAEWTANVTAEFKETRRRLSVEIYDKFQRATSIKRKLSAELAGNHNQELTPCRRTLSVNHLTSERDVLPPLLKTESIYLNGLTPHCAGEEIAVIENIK
Test: TREK-1 Thallium (Tl+) flux assay, Method 1
Assay type: cell-based
Settings: TREK-1 Thallium (Tl+) flux assay; values without footnote *12 are Method 1
pIC50: −log10 of the molar value.
observed_property: pIC50

>>> value_observed("Cc1cc(C#Cc2ccccc2)cnc1NC(=O)c1c(Cl)cnn1C(C)C1CCN(C(=O)OC(C)(C)C)CC1 (stereo not shown)")
6.80
>>> value_observed("N#CC1(Cn2ncc(Cl)c2C(=O)Nc2c(F)cc(C#Cc3ccccc3)cc2F)CC1")
6.57
>>> value_observed("CC(=O)N1CCCC(n2ncc(Cl)c2C(=O)Nc2ncc(C#Cc3ccccc3)cc2F)CC1 (stereo not shown)")
7.05
>>> value_observed("CCNC(=O)N1CCC(n2ncc(Cl)c2C(=O)Nc2ncc(C#Cc3cccs3)cc2C)CC1")
6.80

---

Biological target: human TREK-1 (Homo sapiens)
Construct: expressed in transfected cells
Sequence (O95069 1-426): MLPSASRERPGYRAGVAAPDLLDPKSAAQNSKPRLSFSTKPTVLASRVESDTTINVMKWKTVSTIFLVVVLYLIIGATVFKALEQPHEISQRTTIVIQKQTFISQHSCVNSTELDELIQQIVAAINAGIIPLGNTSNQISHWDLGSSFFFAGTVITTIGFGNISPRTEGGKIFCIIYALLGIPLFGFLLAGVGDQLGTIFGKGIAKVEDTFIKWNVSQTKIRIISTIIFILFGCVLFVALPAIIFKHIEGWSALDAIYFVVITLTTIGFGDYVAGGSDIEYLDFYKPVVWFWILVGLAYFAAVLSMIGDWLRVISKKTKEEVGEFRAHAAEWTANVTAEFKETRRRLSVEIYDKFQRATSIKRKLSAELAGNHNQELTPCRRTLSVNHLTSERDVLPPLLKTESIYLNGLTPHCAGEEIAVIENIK
Test: TREK-1 Thallium (Tl+) flux assay, Method 1
Assay type: cell-based
Details: TREK-1 Thallium (Tl+) flux assay; no *^12 (Method 2) mark on these rows
pIC50: −log10 of the molar value.
observed_property: pIC50

>>> value_observed("N#CC1CC(n2ncc(Cl)c2C(=O)Nc2ncc(C#Cc3ccccc3)cc2F)C1 (centres unmarked)")
6.36
>>> value_observed("Cc1cc(C#Cc2ccccc2)cnc1NC(=O)c1c(Cl)cnn1[C@H]1C[C@@H](NC(=O)OC(C)(C)C)C1")
6.06
>>> value_observed("Cc1cc(C#Cc2ccc(F)cc2)cnc1NC(=O)c1c(Cl)cnn1CCN1CCN(C(=O)C2COCCO2)CC1 (centres unmarked)")
6.41
>>> value_observed("Cc1cc(C#Cc2ccc(F)cc2)cnc1NC(=O)c1c(Cl)cnn1C1CC2(CCN(C(=O)C3COCCO3)C2)C1 (centres unmarked)")
6.24
>>> value_observed("Cc1cc(C#Cc2ccccc2)cc(F)c1NC(=O)c1c(Cl)cnn1C[C@H]1CCOC1")
6.47
>>> value_observed("COc1ccc(-c2cnc(NC(=O)c3c(Cl)cnn3C3CCN(C(=O)OC(C)(C)C)CC3)c(C)c2)cc1OC")
6.13
>>> value_observed("Cc1cc(C#Cc2ccc(F)cc2)cnc1NC(=O)c1c(Cl)cnn1CC1CCN(C(=O)C(C)C)CC1C (centres unmarked)")
6.31
>>> value_observed("CC(=O)N1CCC(CCn2ncc(Cl)c2C(=O)Nc2ncc(C#Cc3ccccc3F)cc2C)CC1")
6.52
>>> value_observed("CC(C)(C)OC(=O)N1CCC(n2ncc(Cl)c2C(=O)Nc2ncc(C#Cc3ccccc3)cc2F)CC1")
6.38
>>> value_observed("CC(=O)N1CCC(F)(Cn2ncc(Cl)c2C(=O)Nc2ncc(C#Cc3ccccc3)cc2F)CC1")
6.46
>>> value_observed("Cc1cc(C#Cc2ccc(F)cc2)cnc1NC(=O)c1c(Cl)cnn1CC1(F)CCN(C(=O)C(C)C)CC1")
6.14
>>> value_observed("Cc1cc(OCc2ccccc2)ccc1NC(=O)c1c(Cl)cnn1[C@H]1CC[C@@H](NC(=O)C2COCCO2)CC1 (some centres unmarked)")
6.42
>>> value_observed("CCC(=O)N1CCCC(Cn2ncc(Cl)c2C(=O)Nc2ncc(C#Cc3ccc(F)cc3)cc2C)C1 (centres unmarked)")
6.07
>>> value_observed("CCN1CC(n2ncc(Cl)c2C(=O)Nc2ncc(C#Cc3ccccc3)cc2F)C1 [Compound 373, hydrate]")
5.96
>>> value_observed("CC(C)(C)OC(=O)N1CCCC(Cn2ncc(Cl)c2C(=O)Nc2ncc(C#Cc3ccccc3)cc2F)C1 (centres unmarked)")
6.04
>>> value_observed("CC(=O)N1CCC(n2ncc(Cl)c2C(=O)Nc2cnc(C#Cc3ccccc3)c(F)c2)CC1")
5.25
>>> value_observed("Cc1cc(C#Cc2ccccc2)cnc1NC(=O)c1c(Cl)cnn1C1CC2(C1)CN(C(=O)OC(C)(C)C)C2")
6.19
>>> value_observed("CC1CN(C(=O)OC(C)(C)C)CCC1Cn1ncc(Cl)c1C(=O)Nc1ncc(C#Cc2ccccc2)cc1F (centres unmarked)")
6.21
>>> value_observed("Cc1cc(C#Cc2ccc(F)cc2)cnc1NC(=O)c1c(Cl)cnn1C1CC2(CCN(C(=O)C3CC3)C2)C1 (single isomer, unassigned)")
6.04
>>> value_observed("Cc1cc(C#Cc2ccccc2)cnc1NC(=O)c1c(Cl)cnn1C1CCCC(NC(=O)OC(C)(C)C)C1 (centres unmarked)")
6.06
>>> value_observed("Cc1cc(OCc2ccccc2)ccc1NC(=O)c1c(Cl)cnn1[C@H]1CC[C@@H](NC(=O)CC(C)C)CC1")
6.21
>>> value_observed("Cc1cc(C#Cc2ccccc2)cnc1NC(=O)c1c(Cl)cnn1[C@H]1C[C@@H]2CN(C(=O)C(C)(C)C)C[C@@H]2C1")
6.08
>>> value_observed("Cc1cc(C#Cc2ccccc2)cnc1NC(=O)c1c(Cl)cnn1[C@H]1C[C@@H](NC(=O)C(C)C)C1")
6.51
>>> value_observed("Cc1cc(C#Cc2ccccc2)cnc1NC(=O)c1c(Cl)cnn1-c1ccc2occc2c1")
6.24
>>> value_observed("Cc1cc(C#Cc2ccccc2)cnc1NC(=O)c1c(Cl)cnn1C[C@H]1CCCN(C(=O)C(C)C)C1")
6.37
>>> value_observed("Cc1cc(C#Cc2ccccc2)cnc1NC(=O)c1c(Cl)cnn1CCN1CCN(C(=O)OC(C)(C)C)CC1")
6.20
>>> value_observed("Cc1cc(C#Cc2ccccc2)cnc1NC(=O)c1c(Cl)cnn1CC1CCC(C)(C)O1 (centres unmarked)")
6.00
>>> value_observed("CC(=O)N1CCC(CCn2ncc(Cl)c2C(=O)Nc2ncc(C#Cc3cccs3)cc2F)CC1")
6.23
>>> value_observed("O=C(Nc1ncc(C#Cc2cccs2)cc1F)c1c(Cl)cnn1CCC1CCN(C(=O)C2COCCO2)CC1 (centres unmarked)")
6.51
